# experimental protocol: viability gain of MRP-1-high H69AR cells under doxorubicin, pilot screen, MRP-1 activator project, CellTiter-Glo, duplicate (AID 807);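 further: compound pretreatment 18-22 h then 72 h combined with doxorubicin; 0% = doxorubicin alone and 100% = vehicle without doxorubicin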
# condition parameters: H69AR viability with doxorubicin, CellTiter-Glo luminescence; at 10 µM; active compounds read high
For each of the molecules below, state its viability increase.
Write the answer as a number in %, unit excluded.

Name the recorded viability increase for "COC(=O)C1=C(C)N(C)C(C)=C(C(=O)OC)C1c1ccsc1" . -2.96

Next molecule up: "Cc1ccc2c(CC(=O)O)coc2c1" -0.46

Moving on to "Cc1ccccc1-c1nnc(SCC(=O)Nc2ccc(Cl)cc2)n1N" 2.22

Can you check "CCOc1ccc2[nH]cc(S(=O)(=O)c3ccc(F)cc3)c(=O)c2c1" next? -0.98

Item: CCC(C)NC(=O)c1cn(C)c(=O)c2cc(OC)c(OC)cc12 (stereo not drawn) -3.24

Then "CCn1nc(CC(=O)Nc2ccc(-n3cnnn3)c(C)c2)c2ccccc2c1=O" ? -4.37

Try "CC1=CS/C(=C(/C#N)C(=O)N2CCCCC2)N1c1ccccc1" next. -1.48

Try CC(=O)NC(C)c1nc2ccccc2n1Cc1ccccc1F (stereo not drawn) next. 0.25

Do the same for "Cn1c(=O)oc2cc(S(=O)(=O)NCCN3CCc4ccccc4C3)ccc21" please -3.63

# repeat for CSCCC1(C(=O)O)NC(c2ccccc2O)C2C(=O)N(C(C)C)C(=O)C21 (stereo not drawn) -1.09

Next: Cc1cc(=O)oc(C)c1C(=O)N1CCc2c([nH]c3ccccc23)C1C(C)C (stereo not drawn) -5

What would you report for "CC1=CC(C)(C)N(C(=O)CSc2nnc(-c3ccccc3)o2)c2ccc(C)cc21" ? -5.46

Would you mind doing "Cc1cc(NS(=O)(=O)c2ccc(NC(=O)Nc3ccccc3)cc2)no1" as well? 1.41

One more molecule: "CCn1cc(S(=O)(=O)CC(=O)NC2CCCCC2)c2ccccc21" -1.1

Please give the result for CCc1cccc(C)c1NC(=O)C1CCCO1 (stereo not drawn) too. -3.29

Ok, now "O=C(Cc1ccccc1)n1nc(-c2ccccc2)nc1NCc1ccco1" -2.03

// query: "O=C(NCc1cccnc1)c1cnn2ccccc12" -1.28

Note, next up: "CCOC(=O)c1c(NC(=O)c2ccc(Cl)s2)sc(C)c1C" -8.89

Next up: "Cc1ccc(C(=O)N2CCN(C)CC2)cc1S(=O)(=O)N1CCCCC1" -2.65

Note, next up: C#CCN1C(=O)C(O)(CC(=O)c2ccc3c(c2)OCCO3)c2ccccc21 (stereo not drawn) -2.81

Now this one: "C=CCc1cc(/C=N/n2cnnc2)cc(OCC)c1O" -2.46

Try O=C1CCc2cc(S(=O)(=O)N3CCCC3C(=O)N3CCN(c4ccccc4)CC3)ccc2N1 (stereo not drawn) next. -3.91

Try "CCn1cc(S(=O)(=O)CC(=O)Nc2ccc(C)cc2)c2ccccc21" next. -0.58

* * *

# experimental protocol: viability gain of MRP-1-high H69AR cells under doxorubicin, pilot screen, MRP-1 activator project, CellTiter-Glo, duplicate (AID 807);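 further: compound pretreatment 18-22 h then 72 h combined with doxorubicin; 0% = doxorubicin alone and 100% = vehicle without doxorubicin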
# condition parameters: H69AR viability with doxorubicin, CellTiter-Glo luminescence; at 10 µM; active compounds read high
measured attribute: viability increase (%)
Note: unit % is implicit; provide only the numeric part.

Can you look up the measured viability increase of CCOc1ccc(NC(=O)CSc2nc3c(c(=O)n2C)SC(C)C3)cc1 (stereo unspecified) for me? -0.83

Param item: CC1CCCCC1NC(=O)C1CCN(C(=O)c2sccc2-n2cccc2)CC1 (stereo unspecified) -1.22

Follow-up item: "OCCNc1nc(Nc2ccccc2)nc(Nc2ccccc2)n1" -1.23

Continue with "O=C(CSc1nc(-c2ccccc2)c(-c2ccccc2)o1)N1CCOCC1" -3.26

Next up: "Cc1ccc(-c2nc(=S)c3c(n2Cc2ccco2)CC(C)(C)OC3)cc1" -2.16

Item: "C=CCSc1nnc2nc3c(nn12)c1cc(C)ccc1n3CC=C" -3.51

Further, for N#Cc1nc(-c2ccccc2Cl)oc1NCC1CCCO1 (stereo unspecified) ? 0.31

Let us now turn to "O=C(Cn1c(CN2CCCCC2)nc2ccccc2c1=O)NC1CCCCC1" -2.4

Check "CCc1nc(SCC(=O)c2ccc(C)c(C)c2)n[nH]1" too. 2.14

Now give it for "CCn1c(=NC(=O)c2ccc(N3C(=O)CCC3=O)cc2)sc2c(OC)ccc(OC)c21" too. -0.73

Now the molecule "CC1(C)CC(=O)C=C(Nc2cc(-c3ccccc3)[nH]n2)C1" -6.97

Value source: PubChem BioAssay
